System: SK-BR-3 cells
Test: Measurement of cell growth inhibition (crystal violet staining method)
Assay type: cell-based
Conditions: Homo sapiens; breast cancer SK-BR-3 cells, 72 hr culture with test substance
parameter-measured: IC50 (nM)
Just the number in nM, nothing appended.

[[record]]
molecule = "Cn1cc(-c2cn(-c3ccnc4c3c(C(F)(F)F)nn4-c3ccc(C(N)=O)cc3C#N)cn2)cn1 [Example 169]"
endpoint_value = 270

[[record]]
molecule = "CCc1cc(C(N)=O)ccc1-n1nc(C(F)(F)F)c2c(-n3cnc(-c4cnn(C)c4)c3)ccnc21 [Example 155]"
endpoint_value = 40

[[record]]
molecule = "CC(C)c1nn(-c2ccc(C(N)=O)c(NCc3ccccc3)c2)c2nccc(-c3cnc4ccccc4c3)c12 [Example 20]"
endpoint_value = 670

[[record]]
molecule = "CC(=O)N[C@H]1CC[C@H](Nc2cc(-n3cc(C)c4c(-c5cnc6ccccc6c5)ccnc43)ccc2C(N)=O)CC1 [Example 62]"
endpoint_value = 210


In: Lab note: SK-BR-3 cells assay, enter IC50 for CC(C)c1nn(-c2ccc(C(N)=O)c(NC3CCC(O)CC3)c2)c2nccc(-n3cnc(-c4ccoc4)c3)c12 (centres unmarked) [Example 90] here
Out: 40

In: Lab note: SK-BR-3 cells assay, enter IC50 for CC(C)Nc1cc(C(N)=O)ccc1-n1nc(C(F)(F)F)c2c(-n3cnc(-c4cccnc4)c3)ccnc21 [Example 181] here
Out: 120

In: Lab note: SK-BR-3 cells assay, enter IC50 for CSCCCNc1cc(-n2nc(C(C)C)c3c(-c4cnc5ccccc5c4)ccnc32)ccc1C(N)=O [Example 23] here
Out: 190
